List of IC50 values.
target: PSG G322A (PSD-95); assay: FP displacement (competition) of FITC-15 AA CRIPT by library peptide, IC50 and Ki; conditions: read-out: IC50 (µM), PSG G322A; FP displacement of FITC-15 AA CRIPT probe by PSD library peptide; protein PSG G322A
State just the number; it will be interpreted in µM.

Reference set, count: 2
CC(=O)N[C@@H](Cc1ccc(O)cc1)C(=O)N[C@@H](Cc1c[nH]cn1)C(=O)N1CCC[C@H]1C(=O)N[C@@H](Cc1c[nH]cn1)C(=O)N1CCC[C@H]1C(=O)N[C@@H](Cc1c[nH]cn1)C(=O)N1CCC[C@H]1C(=O)N[C@@H](Cc1c[nH]cn1)C(=O)N[C@@H](CO)C(=O)N[C@@H](Cc1c[nH]cn1)C(=O)N[C@@H](CO)C(=O)N[C@H](C(=O)N[C@H](C(=O)N[C@@H](CCCNC(=N)N)C(=O)N[C@H](C(=O)O)C(C)C)[C@@H](C)O)[C@@H](C)O: 56
CC[C@H](C)[C@H](NC(=O)[C@H](CCCCN)NC(=O)[C@@H]1CCCN1C(=O)[C@H](CC(C)C)NC(=O)[C@H](CCCNC(=N)N)NC(=O)[C@H](Cc1c[nH]cn1)NC(=O)[C@H](CO)NC(=O)CNC(=O)[C@H](CC(=O)O)NC(=O)[C@H](Cc1ccc(O)cc1)NC(C)=O)C(=O)N[C@@H](CCCCN)C(=O)N[C@@H](CCC(=O)O)C(=O)N[C@H](C(=O)N[C@H](C(=O)N[C@H](C(=O)O)C(C)C)[C@@H](C)O)[C@@H](C)O: 3.4

Now consider the entry below.
Exercise: Provide IC50 value for the following molecule: CC(=O)N[C@@H](Cc1ccc(O)cc1)C(=O)N[C@@H](CCCNC(=N)N)C(=O)N[C@@H](CCC(N)=O)C(=O)N1CCC[C@H]1C(=O)N[C@@H](CC(C)C)C(=O)N1CCC[C@H]1C(=O)N[C@@H](CC(=O)O)C(=O)N[C@@H](CO)C(=O)N[C@@H](CC(N)=O)C(=O)N1CCC[C@H]1C(=O)N[C@@H](CCC(=O)O)C(=O)N[C@@H](CCC(=O)O)C(=O)N[C@@H](CO)C(=O)N[C@@H](CO)C(=O)N[C@H](C(=O)O)C(C)C
Solution: 156

Reference source: paper PMC9490041
